Entry source: ChEMBL document CHEMBL4184248

Target: Indoleamine 2,3-dioxygenase 1 (Homo sapiens)
Sequence (P14902 whole entry, looked up): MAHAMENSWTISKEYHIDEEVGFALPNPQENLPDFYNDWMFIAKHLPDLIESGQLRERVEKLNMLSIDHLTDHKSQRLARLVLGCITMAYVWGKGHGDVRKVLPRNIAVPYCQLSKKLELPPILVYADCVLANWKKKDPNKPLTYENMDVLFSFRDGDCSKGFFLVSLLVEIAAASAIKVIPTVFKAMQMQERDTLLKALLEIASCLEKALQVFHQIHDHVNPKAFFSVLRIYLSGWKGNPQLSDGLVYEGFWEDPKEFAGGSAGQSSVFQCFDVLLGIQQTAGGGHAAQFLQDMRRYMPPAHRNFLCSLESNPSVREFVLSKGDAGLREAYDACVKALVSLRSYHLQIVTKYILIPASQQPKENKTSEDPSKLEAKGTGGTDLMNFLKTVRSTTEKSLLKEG
Assay: Inhibition of human recombinant IDO1 assessed as reduction in kynurenine production at 1 uM using L-tryptophan incubated for 60 mins by Ehrlich's reagent based assay
Decide using inhibition: a value greater than or equal to 50% is Fulfilled, a smaller one is Not fulfilled.

## Task Exam item: decide whether the reported inhibition for CN(CC(=O)NCc1cnc2scc(-c3ccc(Br)cc3)n12)C(=O)Cc1ccccc1 is at least 50%.
## Result Fulfilled

## Task Say whether CN(CC(=O)NCc1cnc2scc(-c3ccc(Br)cc3)n12)C(=O)Cc1ccccc1[N+](=O)[O-] shows inhibition of 50% or more.
## Result Fulfilled

## Task Does the compound O=C(COC(=O)Cc1ccc(Cl)cc1)NCc1cnc2scc(-c3ccc(Br)cc3)n12 have recorded inhibition that is 50% or more?
## Result Not fulfilled

## Task # bool: inhibition of CN(CC(=O)NCc1cnc2scc(-c3ccc(Br)cc3)n12)C(=O)Cc1ccc(O)c(O)c1 >= 50%
## Result Not fulfilled

## Task Please indicate if the recorded inhibition for O=C(CO)NCc1cnc2scc(-c3ccc(Br)cc3)n12 meets or exceeds 50%.
## Result Not fulfilled

## Task Determine whether this compound has inhibition no lower than 50%: CC(=O)N(C)CC(=O)NCc1cnc2scc(-c3ccc(Br)cc3)n12
## Result Not fulfilled

----------
System: A-375
Assay: Cytotoxicity in human A375 cells assessed as cell viability at 10 uM incubated for 48 hrs by MTT assay
Format: functional
Conditions: A-375, 48 h, read-out: Activity
Quick list: viability at 10 µM per entry.
# output: bare number, implied unit %

These solved cases illustrate the format of a correct answer.
- sampleSmiles: "CN(CC(=O)NCc1cnc2scc(-c3ccc(Br)cc3)n12)C(=O)Cc1ccc(Cl)cc1"
  viability at 10 µM [%]: 64
- sampleSmiles: "CN(CC(=O)NCc1cnc2scc(-c3ccc(Br)cc3)n12)C(=O)Cc1ccc(O)cc1"
  viability at 10 µM [%]: 91
- sampleSmiles: "CN(CC(=O)NCc1cnc2scc(-c3ccc(Br)cc3)n12)C(=O)Cc1cccc([N+](=O)[O-])c1"
  viability at 10 µM [%]: 93
- sampleSmiles: "COc1cccc(C(=O)N(C)CC(=O)NCc2cnc3scc(-c4ccc(Br)cc4)n23)c1"
  viability at 10 µM [%]: 98
- sampleSmiles: "O=C(COC(=O)Cc1ccccc1)NCc1cnc2scc(-c3ccc(Br)cc3)n12"
  viability at 10 µM [%]: 98

## Task Identify the measured viability at 10 µM of O=C(CO)NCc1cnc2scc(-c3ccc(Br)cc3)n12 for A-375.
## Result 97

## Task Request: viability at 10 µM, test system A-375, entry CN(CC(=O)NCc1cnc2scc(-c3ccc(Br)cc3)n12)C(=O)c1ccccc1
## Result 96

## Task Please state recorded viability at 10 µM (tested on A-375) of O=C(COC(=O)Cc1ccccc1[N+](=O)[O-])NCc1cnc2scc(-c3ccc(Br)cc3)n12
## Result 100

## Task API: value(readout=viability at 10 µM, system=A-375) for record CN(CC(=O)NCc1cnc2scc(-c3ccc(Br)cc3)n12)C(=O)Cc1ccc(C#N)cc1
## Result 92

## Task # value lookup — system A-375, readout viability at 10 µM, item N#Cc1ccc(NC(=O)NCc2cnc3scc(-c4ccc(Br)cc4)n23)cc1
## Result 99

----------
Test system: A-375
Test: Cytotoxicity in human A375 cells assessed as cell viability at 10 uM incubated for 48 hrs by MTT assay
Format: functional
Conditions: A-375, 48 h, read-out: Activity
quantityKind: viability at 10 µM (%)
Dear colleague, please return just the value in %, with no unit written.

A selection of reference data follows.
- sampleSmiles: "Cn1cc(C[C@H](N)C(=O)O)c2ccccc21"
  quantityKind: "viability at 10 µM"
  recordedNumber: 100
- sampleSmiles: "CN(CC(=O)NCc1cnc2scc(-c3ccc(Br)cc3)n12)C(=O)Cc1ccccc1[N+](=O)[O-]"
  quantityKind: "viability at 10 µM"
  recordedNumber: 92
- sampleSmiles: "CN(CC(=O)NCc1cnc2scc(-c3ccc(Br)cc3)n12)C(=O)Cc1cccc(Cl)c1"
  quantityKind: "viability at 10 µM"
  recordedNumber: 83
- sampleSmiles: "O=C(COC(=O)Cc1ccccc1O)NCc1cnc2scc(-c3ccc(Br)cc3)n12"
  quantityKind: "viability at 10 µM"
  recordedNumber: 100

From here, focus on the item given below.
## Task Given the entry NS(=O)(=O)NCCNc1nonc1/C(=N/O)Nc1ccc(F)c(Br)c1 , report its measured viability at 10 µM.
## Result 100

----------
Below, each entry is listed with its recorded viability at 10 µM.
Test system: A-375
Assay: Cytotoxicity in human A375 cells assessed as cell viability at 10 uM incubated for 48 hrs by MTT assay
Format: functional
Settings: A-375, 48 h, read-out: Activity
Use % as the unit, but write only the number.

Some solved cases for reference:
- sampleSmiles: "O=C(COC(=O)Cc1ccc(Cl)cc1)NCc1cnc2scc(-c3ccc(Br)cc3)n12"
  viability at 10 µM, %: 100
- sampleSmiles: "COc1ccc(C(=O)N(C)CC(=O)NCc2cnc3scc(-c4ccc(Br)cc4)n23)cc1"
  viability at 10 µM, %: 82
- sampleSmiles: "N#Cc1ccc(CC(=O)OCC(=O)NCc2cnc3scc(-c4ccc(Br)cc4)n23)cc1"
  viability at 10 µM, %: 100
- sampleSmiles: "CN(CC(=O)NCc1cnc2scc(-c3ccc(Br)cc3)n12)C(=O)Cc1ccccc1O"
  viability at 10 µM, %: 88

Please look at the following compound next.
## Task Would you kindly share the measured viability at 10 µM for CN(CC(=O)NCc1cnc2scc(-c3ccc(Br)cc3)n12)C(=O)Cc1ccccc1 ?
## Result 100

----------
Property: inhibition; scope: individual compounds
Biological target: Indoleamine 2,3-dioxygenase 1 (Homo sapiens)
Assay: Inhibition of human recombinant IDO1 assessed as reduction in kynurenine production at 1 uM using L-tryptophan incubated for 60 mins by Ehrlich's reagent based assay
// units = %; emit number, no label

Completed entries (count: 5):
- sampleSmiles: "N[C@H](C(=O)NCC(=O)NCc1cnc2scc(-c3ccc(Br)cc3)n12)c1ccccc1"
  quantityKind: "inhibition"
  units: "%"
  recordedNumber: 10
- sampleSmiles: "N[C@H](C(=O)NCC(=O)NCc1cnc2scc(-c3ccc(Br)cc3)n12)c1ccc(O)cc1"
  quantityKind: "inhibition"
  units: "%"
  recordedNumber: 0
- sampleSmiles: "COc1ccc(C(=O)N(C)CC(=O)NCc2cnc3scc(-c4ccc(Br)cc4)n23)cc1"
  quantityKind: "inhibition"
  units: "%"
  recordedNumber: 49
- sampleSmiles: "O=C(COC(=O)Cc1cccc([N+](=O)[O-])c1)NCc1cnc2scc(-c3ccc(Br)cc3)n12"
  quantityKind: "inhibition"
  units: "%"
  recordedNumber: 50
- sampleSmiles: "CN(CC(=O)NCc1cnc2scc(-c3ccc(Br)cc3)n12)C(=O)Cc1ccccc1Cl"
  quantityKind: "inhibition"
  units: "%"
  recordedNumber: 41

## Task I would be grateful if you could share the reported inhibition for COc1cccc(C(=O)N(C)CC(=O)NCc2cnc3scc(-c4ccc(Br)cc4)n23)c1 .
## Result 48

## Task What value of measured inhibition is listed for CN(CC(=O)NCc1cnc2scc(-c3ccc(Br)cc3)n12)C(=O)Cc1ccc(O)cc1 ?
## Result 55

## Task Sample CN(CC(=O)NCc1cnc2scc(-c3ccc(Br)cc3)n12)C(=O)Cc1cccc(O)c1 — what was its inhibition?
## Result 63

----------
The following compounds are listed with their measured inhibition values.
Molecular target: Indoleamine 2,3-dioxygenase 1 (Homo sapiens)
Assay: Inhibition of human recombinant IDO1 assessed as reduction in kynurenine production at 1 uM using L-tryptophan incubated for 60 mins by Ehrlich's reagent based assay
Give the value, in units of %, as a plain number.

The following compounds have reported results that may help.
- sampleSmiles: "O=C(COC(=O)Cc1ccccc1)NCc1cnc2scc(-c3ccc(Br)cc3)n12"
  units: "%"
  inhibition: 72
- sampleSmiles: "O=C(COC(=O)Cc1ccc([N+](=O)[O-])cc1)NCc1cnc2scc(-c3ccc(Br)cc3)n12"
  units: "%"
  inhibition: 39
- sampleSmiles: "CN(CC(=O)NCc1cnc2scc(-c3ccc(Br)cc3)n12)C(=O)Cc1ccc(Cl)cc1"
  units: "%"
  inhibition: 51

// below: inhibition requested for another compound
## Task What value of inhibition has been recorded for this entry: N#Cc1cccc(CC(=O)OCC(=O)NCc2cnc3scc(-c4ccc(Br)cc4)n23)c1
## Result 29
